Give GI50 for every item shown.
# Test system: 786-0
# RUN DESCRIPTION: NCI tumour cell line growth inhibition, 48 h
Activity calls are given as the source filed them. No stated cut-off is given here; in the data, active = GI50 up to about 1.1 µM and inactive = higher.

// below: answered molecules
* COc1cc2c(cc1O)CCN[C@@]21CS[C@H]2c3c(OC(C)=O)c(C)c4c(c3C(COC1=O)N1C2C2NC(Cc3cc(C)c(OC)c(O)c32)[C@@H]1O)OCO4 (some centres undefined) | < 0.01 µM (active)
* CN(C)CCC(/C=C/c1ccccc1)=N\Nc1ccc(Cl)cc1 | 2.39 µM (inactive)
* CC1=CCC(=O)[C@]2(C)C(CC(=O)O)[C@]3(C)C4=C(C)C(c5ccoc5)C[C@@H]4O[C@@H]3[C@H](O)[C@@H]12 (some centres undefined) | > 100 µM (inactive)
* COC(=O)/C=C\C(C#N)(C#N)/N=C/c1ccc(Br)cc1 | 1.02 µM (active)
* O=c1c2c(no[n+]2[O-])c2ccccc2n1-c1ccccc1 | 2.89 µM (inactive)
* Cc1cc(C)c(-c2no/c(=N\S(=O)(=O)c3ccc(Cl)cc3)o2)c(C)c1 | > 100 µM (inactive)
* O=C1CC(NC(=O)C(F)(F)F)c2c(Br)sc(N3CCC(c4ccccc4)CC3)c21 (centres undefined) | 20.8 µM (inactive)
* ClC1(c2ccccc2)c2ccc(Br)cc2-c2cc(Br)ccc21 | 16.6 µM (inactive)

Continue with the next molecule.
Looking up Cc1ccc(S(=O)(=O)SC(C)(C)C)cc1 , I found its GI50 recorded as 16.9 µM (inactive)

====

# Test system: MOLT-4
# RUN DESCRIPTION: NCI tumour cell line growth inhibition, 48 h
The source made the active and inactive calls. No stated cut-off is given here; in the data, active = GI50 up to about 1.1 µM and inactive = higher.
QUANTITY MEASURED: GI50

// below: answered compounds
- c1ccc(C2(c3ccccc3)S/C(=C3/SC(c4ccccc4)(c4ccccc4)c4ccccc43)c3ccccc32)cc1: > 100 µM (inactive)
- COC(=O)c1ccc(Nc2nc3[nH]cnc3c(=O)[nH]2)cc1: 87.1 µM (inactive)
- COc1cc(Nc2nc3ccccc3nc2C(C)C)cc(OC)c1OC: > 100 µM (inactive)
- CC(C)CC(NC=O)C(=O)NC(Cc1ccccc1)NC(=O)CNC(=O)C(C)NC(=O)C(N)Cc1ccc(O)cc1 (stereo not drawn): > 100 µM (inactive)
- COc1ccc(/C=C2\CCc3cc(OC)c(OC)cc3C2=O)cc1: > 10 µM (inactive)
- CC(O)C(CO)NC(=O)C1CSSCC(NC(=O)C(N)Cc2ccccc2)C(=O)NC(Cc2ccccc2)C(=O)NC(Cc2c[nH]c3ccccc23)C(=O)NC(CCCCN)C(=O)NC(C(C)O)C(=O)N1 (stereo not drawn): > 100 µM (inactive)
- O=C1C=CC(=O)c2c1ccc1c3ccccc3n(Cc3cccc([N+](=O)[O-])c3)c21: 8.65 µM (inactive)
- NC(=S)N/N=C/c1ncccc1N: 0.438 µM (active)

Need GI50 for each of these compounds.
1. O=C(CN(c1ccc(S(=O)(=O)O)cc1)c1ccc(S(=O)(=O)O)cc1)Nn1cnc2ccc(S(=O)(=O)N(c3ccc(S(=O)(=O)O)cc3)c3ccc(S(=O)(=O)O)cc3)cc2c1=O
2. CCCN1C(=O)C/C(=C\C(C)=O)Nc2ccccc21
3. CCCCCCCCCCCCCC(=O)OC(/C=C/C(C)C)C(O)C(O)C(OC)C(=O)NC1CCCCNC1=O (stereo not drawn)

result:
["> 100 µM (inactive)", "> 100 µM (inactive)", "0.57 µM (active)"]

These measurements were taken from ChEMBL document CHEMBL1201862.
